SYSTEM NAME: human orexin 1 receptor (hOx1R) (Homo sapiens)
Construct: expressed in transfected cells
Sequence (O43613 whole entry): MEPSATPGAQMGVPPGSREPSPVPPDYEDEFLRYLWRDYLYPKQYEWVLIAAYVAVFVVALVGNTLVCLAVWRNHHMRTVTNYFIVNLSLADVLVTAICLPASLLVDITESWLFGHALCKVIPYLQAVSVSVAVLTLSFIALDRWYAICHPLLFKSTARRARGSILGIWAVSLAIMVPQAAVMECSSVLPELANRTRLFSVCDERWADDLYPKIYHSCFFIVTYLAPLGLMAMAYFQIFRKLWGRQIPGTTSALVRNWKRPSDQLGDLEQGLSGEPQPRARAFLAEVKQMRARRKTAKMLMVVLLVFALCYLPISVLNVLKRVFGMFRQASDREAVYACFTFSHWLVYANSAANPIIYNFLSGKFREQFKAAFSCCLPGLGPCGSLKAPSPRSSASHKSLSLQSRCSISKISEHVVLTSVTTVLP
ASSAY DETAILS: Calcium accumulation in cells (FLIPR), antagonism of orexin A, hOx1R
Type: cell-based
RUN CONDITIONS: measured at a concentration of 10 μM of compound (cells marked ^a)
METRIC NAME: inhibition at 10 µM (%)
State just the number; it will be interpreted in %.

QUERY: What does the data say about its inhibition at 10 µM? Entry: CN(C(=O)c1cccc2c1OCO2)[C@H](CCNC(=O)c1ccccn1)Cc1ccc(Cl)cc1
RESULT: 3

QUERY: // returns reported inhibition at 10 µM for input CN(C(=O)c1ccc(C(F)(F)F)c(C(F)(F)F)c1)[C@H](CCNC(=O)c1ccccn1)Cc1ccccc1
RESULT: 25

QUERY: What does the data say about its inhibition at 10 µM? Entry: CN(C(=O)c1ccccc1)[C@H](CCNC(=O)c1ccccc1)Cc1ccccc1
RESULT: 17

QUERY: I have this compound here, CN(C(=O)c1ccccc1)[C@H](CCNC(=O)c1ccc2c(c1)CCO2)Cc1ccccc1 , and I need its recorded inhibition at 10 µM.
RESULT: 12
